Reference for the values: patent US20220177587A1

# Target: CD28 (Homo sapiens, UniProt P10747)
# Protocol Text: Flow binding to Jurkat/IL2 reporter cells (CD28)
# Design: host or cells: Jurkat cells expressing an IL-2-luciferase reporter
# Assay Conditions: Table E10; 33.3 nM; Jurkats (CD28)
Parameter threshold = 500. Response is Fulfilled when CD28 MFI at 33.3 nM meets or exceeds it, else Not fulfilled.

[ask] Identify whether the reported CD28 MFI at 33.3 nM of the following molecule is 500 or greater: E35D/M47I/N48K/I61F (protein) VIHVTKEVKEVATLSCGHNVSVEELAQTRIYWQKDKKMVLTMMSGDIKIWPEYKNRTIFDFTNNLSIVILALRPSDEGTYECVVLKYEKDAFKREHLAEVTLSVKAD
[reply] Fulfilled

[ask] Record E35D/M47V (protein) VIHVTKEVKEVATLSCGHNVSVEELAQTRIYWQKDKKMVLTMMSGDVNIWPEYKNRTIFDITNNLSIVILALRPSDEGTYECVVLKYEKDAFKREHLAEVTLSVKAD ; criterion: CD28 MFI at 33.3 nM no lower than 500. Met?
[reply] Not fulfilled

[ask] // inclusive: CD28 MFI at 33.3 nM at least 500? input: D46V/M47I/A71G (protein) VIHVTKEVKEVATLSCGHNVSVEELAQTRIYWQKEKKMVLTMMSGVINIWPEYKNRTIFDITNNLSIVILGLRPSDEGTYECVVLKYEKDAFKREHLAEVTLSVKAD
[reply] Fulfilled

[ask] Determine whether measured CD28 MFI at 33.3 nM meets or exceeds 500 for E35D/M47V/I61V/L85M (protein) VIHVTKEVKEVATLSCGHNVSVEELAQTRIYWQKDKKMVLTMMSGDVNIWPEYKNRTIFDVTNNLSIVILALRPSDEGTYECVVMKYEKDAFKREHLAEVTLSVKAD
[reply] Not fulfilled

[ask] Given V22A/E35D/M47L/A71G (protein) VIHVTKEVKEVATLSCGHNVSAEELAQTRIYWQKDKKMVLTMMSGDLNIWPEYKNRTIFDITNNLSIVILGLRPSDEGTYECVVLKYEKDAFKREHLAEVTLSVKAD , state whether its CD28 MFI at 33.3 nM is at least 500.
[reply] Fulfilled

[ask] API: above_or_equal(metric=CD28 MFI at 33.3 nM, cutoff=500) for item E35D/M47V/N48K/L85M (protein) VIHVTKEVKEVATLSCGHNVSVEELAQTRIYWQKDKKMVLTMMSGDVKIWPEYKNRTIFDITNNLSIVILALRPSDEGTYECVVMKYEKDAFKREHLAEVTLSVKAD
[reply] Not fulfilled

[ask] Determine whether measured CD28 MFI at 33.3 nM meets or exceeds 500 for Q27H/E35D/M47I (protein) VIHVTKEVKEVATLSCGHNVSVEELAHTRIYWQKDKKMVLTMMSGDINIWPEYKNRTIFDITNNLSIVILALRPSDEGTYECVVLKYEKDAFKREHLAEVTLSVKAD
[reply] Fulfilled

[ask] Please tell me: is the molecule E35D/D46E/A91G (protein) VIHVTKEVKEVATLSCGHNVSVEELAQTRIYWQKDKKMVLTMMSGEMNIWPEYKNRTIFDITNNLSIVILALRPSDEGTYECVVLKYEKDGFKREHLAEVTLSVKAD at or over 500 in terms of CD28 MFI at 33.3 nM?
[reply] Fulfilled

[ask] Check if CD28 MFI at 33.3 nM >= 500 (inclusive). Item: E35D/D46E/L85M (protein) VIHVTKEVKEVATLSCGHNVSVEELAQTRIYWQKDKKMVLTMMSGEMNIWPEYKNRTIFDITNNLSIVILALRPSDEGTYECVVMKYEKDAFKREHLAEVTLSVKAD
[reply] Not fulfilled

[ask] Determine whether measured CD28 MFI at 33.3 nM meets or exceeds 500 for H18Y/E35D/M47L/A71G/A91S (protein) VIHVTKEVKEVATLSCGYNVSVEELAQTRIYWQKDKKMVLTMMSGDLNIWPEYKNRTIFDITNNLSIVILGLRPSDEGTYECVVLKYEKDSFKREHLAEVTLSVKAD
[reply] Fulfilled

[ask] Decide: is the reported value of CD28 MFI at 33.3 nM for E35D/T41S/N48T (protein) VIHVTKEVKEVATLSCGHNVSVEELAQTRIYWQKDKKMVLSMMSGDMTIWPEYKNRTIFDITNNLSIVILALRPSDEGTYECVVLKYEKDAFKREHLAEVTLSVKAD equal to or greater than 500?
[reply] Not fulfilled

[ask] Is CD28 MFI at 33.3 nM for E35D/D46E/M47I (protein) VIHVTKEVKEVATLSCGHNVSVEELAQTRIYWQKDKKMVLTMMSGEINIWPEYKNRTIFDITNNLSIVILALRPSDEGTYECVVLKYEKDAFKREHLAEVTLSVKAD at or above 500?
[reply] Fulfilled

[ask] Hello, I need to know if E35D/M43I/D46E/A71G/L85M (protein) VIHVTKEVKEVATLSCGHNVSVEELAQTRIYWQKDKKMVLTMISGEMNIWPEYKNRTIFDITNNLSIVILGLRPSDEGTYECVVMKYEKDAFKREHLAEVTLSVKAD has measured CD28 MFI at 33.3 nM not below 500. Thanks!
[reply] Not fulfilled
